- Tested on: UO-31 renal
- procedure-details: NCI tumour cell line growth inhibition, 48 h; in the data active = GI50 below about 0.43 µM; inactive = the rest
Pick from t for active, f for inactive when you respond.

Query :: What call does the record list for Cc1nc2sc(C(=O)Nc3cccc4ccccc34)c(N)c2cc1C(O)c1ccccc1 (centres undefined) ?
Result :: t

Query :: How about COc1ccc(/C(COc2ccc3c(=O)c(-c4ccccc4)coc3c2)=N\O)cc1 ?
Result :: f

---

- Test system: BT-549 breast
- procedure-details: NCI tumour cell line growth inhibition, 48 h; in the data active means GI50 below about 0.43 µM; inactive means the rest
Pick from active, inactive when you respond.

Solved entries (count: 2):
molecule	class-assignment
COc1cc2ncn(-c3cc(O[C@@H](C)c4ccccc4Cl)c(C(N)=O)s3)c2cc1OC	inactive
NC1CCC(Nc2nc(NCc3ccc(-c4ccccc4O)nc3)c3ncn(C4CCCC4)c3n2)CC1 (stereo not drawn)	active

Attention now shifts to the item below.
Query :: What call does the record list for CCOC(=O)NC1C2CC(=O)OC(O2)C1OC(C)=O (stereo not drawn) ?
Result :: inactive

---

- Tested on: SNB-75 CNS
- procedure-details: NCI tumour cell line growth inhibition, 48 h; in the data active means GI50 below about 0.43 µM; inactive means the rest
Pick from 1 = active, 0 = inactive when you respond.

Solved entries (count: 4):
compound	system-name	class-assignment
Cc1cc(O)cc2c1[C@]1(C)CCC3C(C)(C)CCC[C@]3(C)[C@H]1C2 (stereo not given in full)	SNB-75 CNS	0
Cc1nc2sc(C(=O)Nc3cccc4ccccc34)c(N)c2cc1C(O)c1ccccc1 (stereo not given)	SNB-75 CNS	1
CC(C)C[C@H](NC(=O)Cn1ccc(NCc2ccccc2)cc1=O)B(O)O	SNB-75 CNS	0
O=S(=O)(NCCCNc1nccc(-c2c(-c3ccc(F)c(O)c3)nc3sccn23)n1)c1ccc(F)cc1	SNB-75 CNS	0

Query :: What call does the record list for COc1cc(-c2ccc(-c3ccc(C(=N)N)nc3)s2)cc(OC)c1OC ?
Result :: 0

Query :: How about C=C1C(=O)O[C@H]2[C@H]1CC/C(COC(=O)c1cc3ccccc3o1)=C\CC[C@@]1(C)O[C@@H]21 ?
Result :: 0

Query :: How about C[C@]12CC[C@@H]3c4cc(-c5ccc(F)cc5)c(O)cc4CC[C@H]3[C@@H]1CC[C@@H]2O ?
Result :: 0

Query :: How about Cc1ccc(Cc2cnc(NC(=O)/C=C/c3cccc(C)c3)s2)cc1 ?
Result :: 1

Query :: How about COc1ccc(-c2cc(-c3ccc(Cl)cc3)nc(SCCCC(=O)NO)n2)cc1 ?
Result :: 0

Query :: How about C[C@@H](O)[C@H](NC(=O)N[C@@H](CC(N)=O)c1nc([C@@H](N)CO)no1)C(=O)O ?
Result :: 0

Query :: How about O=C1NC(=O)C(c2ccccc2Cl)=C1Nc1cc(Cl)c(O)c(Cl)c1 ?
Result :: 0

---

Measured TGI of individual entries
- Test system: HOP-92 NSCLC
- procedure-details: NCI tumour cell line growth inhibition, 48 h

compound	TGI
COc1ccccc1C(O)(c1ccccc1)C(O)(c1ccccc1)c1ccccc1OC (configuration not stated)	> 100 µM

Query :: Look up TGI for this compound: COc1cc(/C=C2\N=C(c3ccccc3)N(c3nc4cc(C)c(C)cc4s3)C2=O)ccc1O
Result :: > 100 µM

Query :: How about COC(=O)CC[C@]1(C)O[C@H]2[C@H]([C@@H](C)CCCC(C)=O)OC(=O)[C@@H]2C[C@H]1O ?
Result :: > 100 µM

Query :: How about Cc1nc2sc(C(=O)Nc3cccc4ccccc34)c(N)c2cc1C(O)c1ccccc1 (configuration not stated) ?
Result :: 18.8 µM

Query :: How about COc1ccc(-c2c3c(cc4cc5c(cc24)OCO5)C(=O)OC3)cc1OC ?
Result :: > 23.4 µM
